Numbers sourced from paper PMC10143968.

I'd be grateful if you could share measured pIC50 for these entries.
- Test system: N. fowleri ATCC 30215™
- MEASUREMENT_DESCRIPTION: In vitro activity against Naegleria fowleri trophozoites (alamarBlue), ATCC 30215 strain
- Type: cell-based
- CONDITION_PARAMETERS: 48 h, 37 °C, read-out: 50% inhibitory concentration (IC50) against N. fowleri ATCC 30215™
Answers are plain numbers, as −log10 of the molar value.

GET pIC50 | system: N. fowleri ATCC 30215™ | item: C=C1CC(O)C(Br)C(C)(C)C12CCC(C)=C(Cl)C2 (single isomer, unassigned; (+)) [(+)-Elatol (1), (+)-elatol]
5.94

Further cases:
GET pIC50 | system: N. fowleri ATCC 30215™ | item: C=C1CC(O)C(Br)C(C)(C)C12CCC(C)=C(Cl)C2 (single isomer, unassigned; (-)) [(−)-Elatol (2), (−)-elatol]
4.42
